# assay.target: DLG2_2, Q15700
# Sequence (Q15700 189-283): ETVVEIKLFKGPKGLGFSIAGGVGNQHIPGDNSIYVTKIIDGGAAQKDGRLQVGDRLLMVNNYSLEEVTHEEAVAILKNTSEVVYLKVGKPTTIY
# test.details: holdup assay
# Set-up: key: below the threshold = too weak to quantify, mostly under pKd 3.1 to 4
# experimental.setup: plain residues with an end cap or a label only (N-terminal biotin on a linker: ado-ado)
endpoint.label: pKd

QKNKDKEYYV [NRXN3_rs746444206, Q9Y4C0] : below the threshold
GFGEERESIL [KIDINS220, Q9ULH0] : below the threshold
FVHPILQSAV [PRKCA, P17252] : 4.04
TETASVCTKV [SLC23A1, Q9UHI7] : 3.99
